Molecular target: T1, mouse CB1 (mouse, UniProt P47746 1-473)
T1 construct: also called muCB1; murine CB1
T1 sequence (P47746 whole entry): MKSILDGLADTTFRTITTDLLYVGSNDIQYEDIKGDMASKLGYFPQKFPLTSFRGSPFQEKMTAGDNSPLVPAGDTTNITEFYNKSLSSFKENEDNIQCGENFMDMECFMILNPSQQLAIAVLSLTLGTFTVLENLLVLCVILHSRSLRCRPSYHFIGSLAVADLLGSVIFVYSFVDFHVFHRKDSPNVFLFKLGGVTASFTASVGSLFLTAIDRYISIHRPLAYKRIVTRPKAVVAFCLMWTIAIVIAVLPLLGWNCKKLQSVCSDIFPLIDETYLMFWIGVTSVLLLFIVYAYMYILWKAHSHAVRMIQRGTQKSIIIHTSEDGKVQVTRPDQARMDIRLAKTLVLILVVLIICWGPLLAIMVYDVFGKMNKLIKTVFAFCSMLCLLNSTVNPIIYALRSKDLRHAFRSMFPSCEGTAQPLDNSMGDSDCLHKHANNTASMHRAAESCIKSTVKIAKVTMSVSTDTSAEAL
Assay: fold over mock (Table 14)
Observable: binding result

binder="LIBC527919-1 (antibody, IgG1, V domains shown) VH: QVQLQESGPGLVKPSQTLSLTCTVSGGSIRRGGDYWAWIRQHPGKGLEWIGHVYQTGSTAYNPNFKDRATISVNTYKNQFSLKLSSVTAADTAVYYCARNYDALSGYSYYYYGMDVWGQGTTVTVSS VL: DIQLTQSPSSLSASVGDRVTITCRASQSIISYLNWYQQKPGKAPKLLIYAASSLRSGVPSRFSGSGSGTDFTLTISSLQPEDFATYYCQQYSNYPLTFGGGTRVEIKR" observable="binding result" experimental_value="no binding"
binder="LIBC523661-1 (antibody, IgG1, V domains shown) VH: QVQLQESGPGLVKPSQTLSLTCTVSGGSIRRGGDYWSWIRQHPGKGLEWIGHIYYEGSTKYNPSFKGRATISVNTYKNQFSLKLSSVTAADTAVYYCARDYDPVTGHSYYYYGMDVWGQGTTVTVSS VL: DIVMTQSPLSLPVTPGEPASISCRSSQSLLTSSGYNYVDWYLQKPGQSPQLLIYQGSNRASGVPDRFSGSGSGTDFTLKISRVEAEDVGVYYCRQARAIPRTFGQGTKVEIKR" observable="binding result" experimental_value="no binding"
binder="LIBC527814-1 (antibody, IgG1, V domains shown) VH: QVQLQESGPGLVKPSQTLSLTCTVSGGSIRRGGDYWGWIRQHPGKGLEWIGHVYQTGSTKYNPSFKDRATISVNTYKNQFSLKLSSVTAADTAVYYCARNYDTLTGYSYYYYGMDVWGQGTTVTVSS VL: DIQMTQSPSTLSASVGDRVTITCRASQSISNYLNWYQQKPGKAPKLLIYAASSLHSGVPSRFSGSGSGTDFTLTISSLQPEDFASYYCQQYQSYPLTFGQGTKVEIKR" observable="binding result" experimental_value="no binding"
